Test system: biotinyl-Ile-oxazolone
Experiment: self-aminoacylation, catalytic enhancement (BIO) (fold over background); higher = more active; k-Seq, kA / k0A0; sequences stand for … in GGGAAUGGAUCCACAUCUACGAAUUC…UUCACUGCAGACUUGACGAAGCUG
Variants at the floor of the assay were thinned out.
Where self-aminoacylation equals or exceeds 2, the correct label is True; where it does not, the label is False.

>>> label("AAGUUUGCUAAAAGUCGCGAG [Fam3.1 aminoacylation ribozyme variant]")
"False"
>>> label("CCACUCUUCAAGCAAUGGGUC [Fam1B.1 aminoacylation ribozyme variant]")
"False"
>>> label("AAGUACGCUAAUAGUCGCAAG [Fam3.1 aminoacylation ribozyme variant]")
"False"
>>> label("AUUACCCUGGUCCUCGCGUGA [Fam2.1 aminoacylation ribozyme variant]")
"True"
>>> label("AUUCACCUAGGUCCUGGGGUG [Fam2.2 aminoacylation ribozyme variant]")
"True"

* * *

Test system: biotinyl-Met-oxazolone
Test: self-aminoacylation, catalytic enhancement (BMO) (fold over background); higher = more active; k-Seq, kA / k0A0; sequences stand for … in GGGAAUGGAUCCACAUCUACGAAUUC…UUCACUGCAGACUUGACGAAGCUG
Fewer inactive variants are shown than the library holds.
endpoint: self-aminoacylation

>>> value("CUACUUCAAACGAUCCGUCUG [Fam1A.1 aminoacylation ribozyme variant]")
0.958
>>> value("CCGCACUUCAAGUAAUCGGUC [Fam1B.1 aminoacylation ribozyme variant]")
1.4
>>> value("AAGUUUGCUAAUAGUCGCGAC [Fam3.1 aminoacylation ribozyme variant]")
1
>>> value("UAGUUUGCUAAUAAUCGCAAG [Fam3.1 aminoacylation ribozyme variant]")
1.04
>>> value("CUACUUCAGACAAUCGGUCUU [Fam1A.1 aminoacylation ribozyme variant]")
0.904
>>> value("CUACUUCCUACAAUCGGUCUG [Fam1A.1 aminoacylation ribozyme variant]")
0.835
>>> value("GUACUUCAAACAAUCGGGCUG [Fam1A.1 aminoacylation ribozyme variant]")
2.47
>>> value("AAGGUUCCUAAUAGUCGCAAG [Fam3.1 aminoacylation ribozyme variant]")
1.64

* * *

Tested on: biotinyl-Trp-oxazolone
Assay: self-aminoacylation, catalytic enhancement (BWO) (fold over background); higher = more active; k-Seq, kA / k0A0; sequences stand for … in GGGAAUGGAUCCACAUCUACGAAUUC…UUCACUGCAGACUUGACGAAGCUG
Fewer inactive variants are shown than the library holds.
endpoint: self-aminoacylation

>>> value("AUUCAGCUAGUUCAUCGGGUG [Fam2.2 aminoacylation ribozyme variant]")
7.26
>>> value("AUUCAUCUAGGUCAUUGGGUG [Fam2.2 aminoacylation ribozyme variant]")
4.24
>>> value("AUUCACCUAGGUCUUCGCGUG [Fam2.2 aminoacylation ribozyme variant]")
3.32
>>> value("CCACUUCAACCAAUCGGUCUG [Fam1A.1 aminoacylation ribozyme variant]")
36.4
>>> value("AUUACCCUGGACAUCGAGUUA [Fam2.1 aminoacylation ribozyme variant]")
0.639

* * *

System: biotinyl-Phe-oxazolone
Assay: self-aminoacylation, catalytic enhancement (BFO) (fold over background); higher = more active; k-Seq, kA / k0A0; sequences stand for … in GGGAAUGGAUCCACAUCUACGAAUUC…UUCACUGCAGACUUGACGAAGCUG
Fewer inactive variants are shown than the library holds.
endpoint: self-aminoacylation

>>> value("CCACUCUUAAAGCAAUCGGUC [Fam1B.1 aminoacylation ribozyme variant]")
0.711
>>> value("AGGUUUGGUAAUAGUCGCAAG [Fam3.1 aminoacylation ribozyme variant]")
3.19
>>> value("AAGUUUGCUAAUAAUCGCAAA [Fam3.1 aminoacylation ribozyme variant]")
0.86
>>> value("AAGCUUGCUAAUAGUCGCAGG [Fam3.1 aminoacylation ribozyme variant]")
7.7
>>> value("AUUACCCUGAUCAUAGAGUGA [Fam2.1 aminoacylation ribozyme variant]")
70.5
>>> value("CUACUUCAAACCAGCGGUCUG [Fam1A.1 aminoacylation ribozyme variant]")
0.715
>>> value("CUACUACAAACAAACGGUCUG [Fam1A.1 aminoacylation ribozyme variant]")
0.827
>>> value("AUUACCUUGGUCAUUGAGUGA [Fam2.1 aminoacylation ribozyme variant]")
32.4
>>> value("ACGUUUGCUAAUAGUCACAAG [Fam3.1 aminoacylation ribozyme variant]")
3.82
>>> value("AUUACCCUCGUCAUCUAGUGA [Fam2.1 aminoacylation ribozyme variant]")
9.86
>>> value("AUUCACCUAGGUCUUCGGCUG [Fam2.2 aminoacylation ribozyme variant]")
6.94
>>> value("UUUACCCUGGUCACCGAGUGA [Fam2.1 aminoacylation ribozyme variant]")
44.3
>>> value("CCACACUUCAAGCACUCGGCC [Fam1B.1 aminoacylation ribozyme variant]")
15.9
>>> value("CCAAACUUCAAGCAAUCGGCC [Fam1B.1 aminoacylation ribozyme variant]")
4.84
>>> value("AAGUUUGAUCAUAGUCGCAAG [Fam3.1 aminoacylation ribozyme variant]")
2.45
>>> value("CUUACGCUGGUCAUCGAGUGA [Fam2.1 aminoacylation ribozyme variant]")
7.86
>>> value("ACUCACCUAGGUCAGCGGGUG [Fam2.2 aminoacylation ribozyme variant]")
31.4
>>> value("AUUCACCUAGGUCCUCUGGUG [Fam2.2 aminoacylation ribozyme variant]")
31.1

* * *

Test system: biotinyl-Trp-oxazolone
Experiment: self-aminoacylation, catalytic enhancement (BWO) (fold over background); higher = more active; k-Seq, kA / k0A0; sequences stand for … in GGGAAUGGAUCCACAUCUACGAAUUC…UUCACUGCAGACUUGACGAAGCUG
Fewer inactive variants are shown than the library holds.
Where self-aminoacylation equals or exceeds 1, the correct label is satisfied; where it does not, the label is not satisfied.

>>> label("AUUCACCUAGGUCCUCGGGUC [Fam2.2 aminoacylation ribozyme variant]")
"not satisfied"
>>> label("AUUCACCAAGGUCAUCGGUUG [Fam2.2 aminoacylation ribozyme variant]")
"satisfied"
>>> label("CCACACCACAAGCAAUCGGUC [Fam1B.1 aminoacylation ribozyme variant]")
"not satisfied"
>>> label("AUUCAACUAGGUCAUAGGGUG [Fam2.2 aminoacylation ribozyme variant]")
"satisfied"
>>> label("AUUCACCUAGGGCAUCGGGUA [Fam2.2 aminoacylation ribozyme variant]")
"satisfied"
>>> label("CCACACUUCAAGAAAGCGGUC [Fam1B.1 aminoacylation ribozyme variant]")
"not satisfied"
>>> label("AGUCACCUAGGUCAUCGGGUA [Fam2.2 aminoacylation ribozyme variant]")
"satisfied"
>>> label("AUUCACAUAGCUCAUCGGGUG [Fam2.2 aminoacylation ribozyme variant]")
"satisfied"
>>> label("AUUCACCUACGUCAUCGGGUC [Fam2.2 aminoacylation ribozyme variant]")
"not satisfied"

* * *

Tested on: biotinyl-Trp-oxazolone
Experiment: self-aminoacylation, catalytic enhancement (BWO) (fold over background); higher = more active; k-Seq, kA / k0A0; sequences stand for … in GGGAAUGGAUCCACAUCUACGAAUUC…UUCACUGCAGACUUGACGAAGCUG
Variants at the floor of the assay were thinned out.
Reported self-aminoacylation values for a set of sequences
endpoint: self-aminoacylation

>>> value("CCACACUUCAAGGAAUCGGUG [Fam1B.1 aminoacylation ribozyme variant]")
6.57
>>> value("CUCCUUCAAACAAUCGGUGUG [Fam1A.1 aminoacylation ribozyme variant]")
6.8
>>> value("AUUCAGCCAGGUCAUCGGGUG [Fam2.2 aminoacylation ribozyme variant]")
9.91
>>> value("AUUCUCCUAGGUCAUCGGGUA [Fam2.2 aminoacylation ribozyme variant]")
7.31
>>> value("AUGAACCUGGUCAUCGAGUGA [Fam2.1 aminoacylation ribozyme variant]")
6.4
>>> value("CCCCACUUCAAGCCAUCGGUC [Fam1B.1 aminoacylation ribozyme variant]")
4.79
>>> value("AUACAUCAAACAAUCGGUCUG [Fam1A.1 aminoacylation ribozyme variant]")
2.68
>>> value("CCACACUUCAAACAAUCGUUC [Fam1B.1 aminoacylation ribozyme variant]")
0.778

* * *

Test system: biotinyl-Trp-oxazolone
Experiment: self-aminoacylation, catalytic enhancement (BWO) (fold over background); higher = more active; k-Seq, kA / k0A0; sequences stand for … in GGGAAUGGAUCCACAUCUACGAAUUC…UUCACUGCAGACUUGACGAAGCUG
Fewer inactive variants are shown than the library holds.
Where self-aminoacylation equals or exceeds 2, the correct label is Condition met; where it does not, the label is Condition not met.

>>> label("ACUCACCGAGGUCAUCGGGUG [Fam2.2 aminoacylation ribozyme variant]")
"Condition met"
>>> label("AAGUUUGAUAAUAGUCUCAAG [Fam3.1 aminoacylation ribozyme variant]")
"Condition not met"
>>> label("CUACUUCAAACGACCGGUCUG [Fam1A.1 aminoacylation ribozyme variant]")
"Condition not met"
>>> label("AUUCACCUAGGCUAUCGGGUG [Fam2.2 aminoacylation ribozyme variant]")
"Condition met"
>>> label("AUUCACCUAGGUCCUGGGGUG [Fam2.2 aminoacylation ribozyme variant]")
"Condition met"
>>> label("AAGUUUGCUAGUACUCGCAAG [Fam3.1 aminoacylation ribozyme variant]")
"Condition not met"
>>> label("AUUGACCUAGGUCUUCGGGUG [Fam2.2 aminoacylation ribozyme variant]")
"Condition met"
>>> label("AUUCACGUAGGUCAUCCGGUG [Fam2.2 aminoacylation ribozyme variant]")
"Condition met"
>>> label("AUUCACCCAGGUAAUCGGGUG [Fam2.2 aminoacylation ribozyme variant]")
"Condition met"
>>> label("CCACAUUUCACGCAAUCGGUC [Fam1B.1 aminoacylation ribozyme variant]")
"Condition met"
>>> label("AUUCACCUAGGUCAUCGCGUG [Fam2.2 aminoacylation ribozyme variant]")
"Condition met"
>>> label("CCACACUUCAACCAAGCGGUC [Fam1B.1 aminoacylation ribozyme variant]")
"Condition not met"
>>> label("UCAAACUUCAAGCAAUCGGUC [Fam1B.1 aminoacylation ribozyme variant]")
"Condition met"
>>> label("AUUAGACUGGUCAUCGAGUGA [Fam2.1 aminoacylation ribozyme variant]")
"Condition met"
>>> label("GCACACUUCAAGUAAUCGGUC [Fam1B.1 aminoacylation ribozyme variant]")
"Condition met"
>>> label("AAGUUUGCUAAUAGUCCCAUG [Fam3.1 aminoacylation ribozyme variant]")
"Condition not met"
>>> label("GUUACCCUGGUCAGCGAGUGA [Fam2.1 aminoacylation ribozyme variant]")
"Condition met"
>>> label("AAGUUUGGUAAUAGCCGCAAG [Fam3.1 aminoacylation ribozyme variant]")
"Condition not met"
